Tested on: IGROV1 ovarian
Assay: NCI tumour cell line growth inhibition, 48 h
Assay Endpoint: TGI

Asked: // Input: CSC(=S)N/N=C(\C)c1ccc(S(=O)(=O)N(C)c2ccccc2)cc1 . Output its TGI only.
Given back: > 100 µM

Asked: Note TGI for the molecule shown: CCOC(=O)c1cc2nc3ccccc3c(=O)n2c2ccccc12
Given back: > 10 µM

Asked: Indicate the recorded TGI value for this molecule: O=c1c2sc(=S)n(-c3ccc(F)cc3)c2ncn1/N=C/c1ccc(F)cc1F
Given back: 89.1 µM

Asked: Identify measured TGI corresponding to [Cl-].[La+3].[O-]/N=C(\c1ccccc1)c1ccccn1.[O-]/N=C(\c1ccccc1)c1ccccn1.[O-]/N=C(\c1ccccc1)c1ccccn1
Given back: > 100 µM

Asked: Tell me its TGI given Cc1cc(N(CCOS(C)(=O)=O)CCOS(C)(=O)=O)ccc1C=O as the entry.
Given back: 39.2 µM

Asked: Find the measured TGI of NS(=O)(=O)c1cc(Br)c(N=Nc2ccc(O)c3ncccc23)c(Br)c1 and report it.
Given back: > 100 µM

Asked: Read the entry COc1ccc(NC(=O)CC(=O)N2N=C(N3c4ccccc4Sc4ccccc43)CC2c2ccccc2)cc1 (configuration not stated) and write its reported TGI.
Given back: > 100 µM

* * *

Tested on: SF-539 CNS
Test: NCI tumour cell line growth inhibition, 48 h; in the data active = GI50 below about 0.43 µM; inactive = the rest
A correct response names exactly one class from 1 for active, 0 for inactive

Asked: What did this assay record as the result for O=C1OC(O)[C@@H]2[C@H]1[C@H]1CC[C@@H]2O1 (stereo partly drawn) ?
Given back: 0

Asked: Which outcome was assigned to COc1cc2c3c(n(C)c(=O)c2cc1OC)-c1cc2c(cc1/C3=C\CCCN)OCO2 in this test?
Given back: 0

Asked: Hi, sorry to bother you, what did the test record for COc1cc(/C=C2\CN(S(=O)(=O)c3ccccc3)C/C(=C\c3cc(CN4CCCC4)c(O)c(OC)c3)C2=O)cc(CN2CCCC2)c1O ?
Given back: 0

Asked: // return assay outcome for O=C(/C=C/c1ccncc1)c1cc(Cl)ccc1O
Given back: 0

Asked: // outcome(item) with item = CN(C(=O)c1ccc(C(F)(F)F)cc1)c1ccc(Oc2ccc3c(c2)cc(C(=O)N2CCN(Cc4ccc(OC(F)F)cc4)CC2)n3C)nc1
Given back: 0

Asked: Assay outcome for CCN1CCN(c2nc(C)cc(N(CCNc3ccnc4cc(Cl)ccc34)Cc3ccc4c(c3)OCO4)n2)CC1 : what was it?
Given back: 0

Asked: Could you kindly confirm the outcome this assay logged for COc1ccc(-c2nnc(COc3ccc(NC(=O)Nc4cc(C(F)(F)F)cc(C(F)(F)F)c4)cc3F)o2)cc1 ?
Given back: 0

Asked: Name the outcome recorded for Fc1cc2[nH]ncc2c2c3c(c(-c4cn[nH]c4)nc12)CCCC3 in the assay.
Given back: 0

Asked: Could you kindly confirm the outcome this assay logged for COc1cc2c3c(n(C)c(=O)c2cc1OC)-c1cc2c(cc1/C3=C\CCN)OCO2 ?
Given back: 1

Asked: What did this assay record as the result for O=C(/C=C/c1ccc(Cl)cc1)c1ccc(Nc2ccnc3cc(Cl)ccc23)cc1 ?
Given back: 0

Asked: // outcome(item) with item = C=C1NC(=O)C(C(C)CC)NC(=O)C2CSCC(NC(=O)CCC(=O)O)C(=O)NC(Cc3ccccc3)C(=O)NC(C)C(=O)NC(CC(C)CC)C(=O)NC(C(=O)NC(Cc3ccccc3)C(=O)N3CCCC3C(=O)N2)C(C)OC(=O)C(CO)NC(=O)C(C(O)COC)N(C)C(=O)C(C(C)C)NC(=O)C(CC(C)CC)NC1=O (stereo not drawn)
Given back: 1

Asked: For this compound, state the assay outcome: COc1cccc(-c2nc(-c3ccc(NC(=O)C(C)C)cc3)[nH]c2-c2ccnc(Br)c2)c1
Given back: 0

Asked: # outcome recorded in this test, key = O=C(CSc1ccc(Cl)cc1)Nc1ccc(-c2nc3ccccc3s2)c(Cl)c1
Given back: 0

Asked: Assay outcome for CN1CCN(CCCn2c(=O)c3sc4ncccc4c3n3nnc(-c4ccccc4)c23)CC1 : what was it?
Given back: 0

Asked: For COc1ccc([C@H]2[C@@H](F)C(=O)N2c2cc(OC)c(OC)c(OC)c2)cc1F , which call appears in the assay record?
Given back: 1

Asked: Tell me the assay call for O=c1c2sccc2n(CC2COc3ccccc3O2)c(=O)n1O (stereo not drawn) please.
Given back: 0

Asked: What did this assay record as the result for CCN(CC)c1ccc(-c2cc(-c3cc(OC)c(OC)c(OC)c3)nc(N3CCOCC3)c2C#N)cc1 ?
Given back: 0

Asked: # lookup: test call for COc1ncnc(NS(=O)(=O)c2ccc(N=C3C(=O)N(CN4CCN(c5c(F)cc6c(=O)c(C(=O)O)cn(C7CC7)c6c5OC)CC4C)c4ccc(Cl)cc43)cc2)c1OC (stereo not drawn)
Given back: 0
